Each recorded value in this set is attributed to patent US12336981B2.

Below is a list of entries, each paired with its recorded pIC50 value.
- target-desc: NAMPT (Homo sapiens)
- Construct: His tag; host or cells: E. coli
- Sequence (P43490 whole entry): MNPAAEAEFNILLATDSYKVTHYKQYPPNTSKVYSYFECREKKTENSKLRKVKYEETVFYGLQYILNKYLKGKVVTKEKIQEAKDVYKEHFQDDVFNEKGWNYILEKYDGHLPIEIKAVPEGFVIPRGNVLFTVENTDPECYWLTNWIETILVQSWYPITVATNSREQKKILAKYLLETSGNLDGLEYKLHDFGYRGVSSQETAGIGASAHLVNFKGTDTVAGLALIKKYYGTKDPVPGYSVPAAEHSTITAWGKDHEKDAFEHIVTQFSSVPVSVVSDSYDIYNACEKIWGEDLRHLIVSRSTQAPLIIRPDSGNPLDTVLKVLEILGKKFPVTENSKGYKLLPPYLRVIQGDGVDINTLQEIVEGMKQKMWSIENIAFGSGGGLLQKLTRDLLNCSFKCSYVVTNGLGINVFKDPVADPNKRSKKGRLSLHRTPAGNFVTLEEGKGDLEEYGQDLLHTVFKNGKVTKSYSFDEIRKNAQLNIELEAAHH
- assay-protocol: Biochemical inhibition assay: NAMPT enzymatic reaction, NMN quantified by mass spectrometry
- condition-details: NAMPT enzymatic reaction; read-out: Biochem IC50
Here pIC50 is given on a logarithmic scale as minus log10 of the concentration in mol/L.

Below are worked cases with known answers.
molecular_string=Cc1cc(C)c(S(=O)(=O)c2ccc(CNC(=O)c3ccc4nccn4c3)cc2)cc1C value=8.03
molecular_string=N#Cc1cccc(S(=O)(=O)c2ccc(CNC(=O)c3cc4ccncc4s3)cc2)c1 value=8.46
molecular_string=COc1cc(F)c(F)cc1S(=O)(=O)c1ccc(CNC(=O)c2ccc3nccn3c2)cc1 value=7.55
molecular_string=O=C(NCc1ccc(S(=O)(=O)c2cccc(-c3ccccc3)c2)cc1)c1ccc2nccn2c1 value=7.91
molecular_string=COc1ccc(S(=O)(=O)c2ccc(CNC(=O)c3cc4ccncc4o3)cc2)cc1 value=8.26

Exercise: // query pIC50 value for entry O=C(NCc1ccc(S(=O)(=O)c2cc(Cl)cc(Cl)c2)cc1)c1cc2ccncc2s1
Solution: 8.22

Exercise: // query pIC50 value for entry COc1ccc(OC)c(S(=O)(=O)c2ccc(CNC(=O)c3cnc4nccn4c3)cc2)c1
Solution: 8.16

Exercise: // query pIC50 value for entry O=C(NCc1ccc(S(=O)(=O)c2ccccc2C(F)(F)F)cc1)c1cc2cnccc2[nH]1
Solution: 7.66

Exercise: // query pIC50 value for entry CCCCOc1cccc(S(=O)(=O)c2ccc(CNC(=O)c3cc4ccncc4o3)cc2)c1
Solution: 7.91
